Data origin: patent US20180214428A1

tested on: primary human fibroblasts derived from IPF patients (LL29 cells); experiment: Inhibition of the fibrotic process: αSMA staining in TGF-β1 treated LL29 fibroblasts; type: cell-based; conditions: Homo sapiens, Fibroblast, 96 h, TGF-β1 20 ng/mL, 4 days, % αSMA positive cells
pEC50: −log10 of the molar value.
Tick rule met if pEC50 is 6 or greater. Tick rule not met if pEC50 is less than 6.

// known answers, use as guide
MOLECULE	ASSAYED TARGET	ASSIGNED CATEGORY
Fc1cccc(-c2cccc3[nH]c(-c4n[nH]c5ncc(-c6ccncc6)cc45)cc23)c1 [Compound 15]	primary human fibroblasts derived from IPF patients (LL29 cells)	rule not met
CS(=O)(=O)NCc1cc(F)cc(-c2cccc3[nH]c(-c4n[nH]c5ncc(-c6ccccn6)cc45)cc23)c1 [Compound 478]	primary human fibroblasts derived from IPF patients (LL29 cells)	rule not met
O=C(Nc1cncc(-c2cnc3[nH]nc(-c4cc5c(-c6ccccc6F)cccc5[nH]4)c3c2)c1)C1CCCC1 [Compound 66]	primary human fibroblasts derived from IPF patients (LL29 cells)	rule not met
CC(C)(C)C(=O)Nc1cncc(-c2cnc3[nH]nc(-c4cc5c(-c6cccnc6)cccc5[nH]4)c3c2)c1 [Compound 78]	primary human fibroblasts derived from IPF patients (LL29 cells)	rule not met
c1ccc(COc2cncc(-c3cnc4[nH]nc(-c5cc6ncccc6[nH]5)c4c3)c2)cc1 [Compound 1006]	primary human fibroblasts derived from IPF patients (LL29 cells)	rule not met
CCNCc1cncc(-c2cnc3[nH]nc(-c4cc5c(-c6ccccn6)cccc5[nH]4)c3c2)c1 [Compound 124]	primary human fibroblasts derived from IPF patients (LL29 cells)	rule not met
CCCCC(=O)Nc1cncc(-c2cnc3[nH]nc(-c4cc5c(N6CCCCC6)cccc5[nH]4)c3c2)c1 [Compound 163]	primary human fibroblasts derived from IPF patients (LL29 cells)	rule not met
CN(C)Cc1cncc(-c2cnc3[nH]nc(-c4cc5c(-c6cc(F)cc(CNS(C)(=O)=O)c6)cccc5[nH]4)c3c2)c1 [Compound 463]	primary human fibroblasts derived from IPF patients (LL29 cells)	rule not met
c1ccc(-c2cnc3[nH]nc(-c4cc5c(-c6ccncc6)cccc5[nH]4)c3c2)nc1 [Compound 120]	primary human fibroblasts derived from IPF patients (LL29 cells)	rule met
CN(C)Cc1cncc(-c2cnc3[nH]nc(-c4cc5c(-c6cccc(F)c6)cccc5[nH]4)c3c2)c1 [Compound 10]	primary human fibroblasts derived from IPF patients (LL29 cells)	rule not met

Now examine the next entry.
Challenge: Does the reported pEC50 for O=C(Nc1cncc(-c2cnc3[nH]nc(-c4cc5c(-c6ccccn6)cccc5[nH]4)c3c2)c1)c1ccccc1 [Compound 128] fall at or above the 6 mark?
Response given: rule met

---

system: IL-6; experiment: IL-6 inhibition in LPS-stimulated THP-1 monocytes (HTRF); assay type: cell-based, human; conditions: Homo sapiens; THP-1 cells, LPS stimulated; given only where EC50 >10 μM; top concentration 10 μM; read-out: percentage in parentheses beside EC50 >10 (IL-6 inhibition)
ENDPOINT LABEL: inhibition at 10 µM (%)
Numbers only; they are read as %.

Some solved entries appear below for comparison.
c1ccc(CNCc2cncc(-c3cnc4[nH]nc(-c5cc6c(-c7ccncc7)cccc6[nH]5)c4c3)c2)cc1 41.7
Fc1cccc(-c2cccc3[nH]c(-c4n[nH]c5ncc(-c6ccncc6)cc45)cc23)c1 55.9

Per the records, this compound ( CN(C)CCNc1cc(F)cc(-c2cccc3[nH]c(-c4n[nH]c5ncc(-c6cncc(NC(=O)C7CCC7)c6)cc45)cc23)c1 ) has inhibition at 10 µM equal to 47.3

Recorded inhibition at 10 µM (compound CCCC(=O)Nc1cncc(-c2cnc3[nH]nc(-c4cc5c(-c6cccc(F)c6)cccc5[nH]4)c3c2)c1 ): 20.3

// inhibition at 10 µM value for Cc1ccncc1-c1cnc2[nH]nc(-c3cc4c(-c5cc(F)cc(CNS(C)(=O)=O)c5)cccc4[nH]3)c2c1 : 54.8

Value of inhibition at 10 µM reported for the compound Fc1cccc(-c2cccc3[nH]c(-c4n[nH]c5ncc(-c6cncc(OCc7ccccc7)c6)cc45)cc23)c1 is 31.3

---

test system: primary human fibroblasts derived from IPF patients (LL29 cells); assay: Inhibition of the fibrotic process: αSMA staining in TGF-β1 treated LL29 fibroblasts; assay type: cell-based; conditions: Homo sapiens, Fibroblast, 96 h, TGF-β1 20 ng/mL, 4 days, % αSMA positive cells
ENDPOINT LABEL: pEC50
The scale used: pEC50 is minus the common logarithm of the concentration in molar units.

CC(C)(C)C(=O)Nc1cncc(-c2cnc3[nH]nc(-c4cc5c(-c6cc(F)cc(CNS(C)(=O)=O)c6)cccc5[nH]4)c3c2)c1 5.92
c1ccc(CNCc2cncc(-c3cnc4[nH]nc(-c5cc6c(-c7ccncc7)cccc6[nH]5)c4c3)c2)cc1 5.60
CN(C)CCNc1cc(F)cc(-c2cccc3[nH]c(-c4n[nH]c5ncc(-c6cncc(CN7CCCCC7)c6)cc45)cc23)c1 5.26
CN(C)CCOc1cncc(-c2cnc3[nH]nc(-c4cc5c(-c6cccnc6)cccc5[nH]4)c3c2)c1 5.71
c1cc(-c2ccncc2)c2cc(-c3n[nH]c4ncc(-c5ccncc5)cc34)[nH]c2c1 5.56

Attention now turns to another entry.
Recorded result, FC1(F)CCN(Cc2cncc(-c3cnc4[nH]nc(-c5cc6c(-c7ccncc7)cccc6[nH]5)c4c3)c2)C1 , pEC50: 6.12

---

test system: IL-6; assay: IL-6 inhibition in LPS-stimulated THP-1 monocytes (HTRF); assay type: cell-based, human; details: Homo sapiens; THP-1 cells, LPS stimulated; given only where EC50 >10 μM; top concentration 10 μM; read-out: percentage in parentheses beside EC50 >10 (IL-6 inhibition)
I would appreciate it if you labelled entries 1 when inhibition at 10 µM is 40% or higher, otherwise -1.

Challenge: Hello, I need to know if CC(C)(C)C(=O)Nc1cncc(-c2cnc3[nH]nc(-c4cc5c(-c6ccc(F)cc6)cccc5[nH]4)c3c2)c1 has measured inhibition at 10 µM not below 40%. Thanks!
Response given: 1

Challenge: // inclusive: inhibition at 10 µM at least 40%? input: Fc1ccc(-c2cccc3[nH]c(-c4n[nH]c5ncc(-c6cncnc6)cc45)cc23)cc1
Response given: -1

Challenge: Evaluate O=C(Nc1cncc(-c2cnc3[nH]nc(-c4cc5c(-c6ccc(F)cc6)cccc5[nH]4)c3c2)c1)C1CCC1 : inhibition at 10 µM at minimum 40%?
Response given: -1

Challenge: Is it the case that CCCCC(=O)Nc1cncc(-c2cnc3[nH]nc(-c4cc5c(N6CCCCC6)cccc5[nH]4)c3c2)c1 has inhibition at 10 µM reaching or exceeding 40%?
Response given: 1

---

system: primary human fibroblasts derived from IPF patients (LL29 cells); experiment: Inhibition of the fibrotic process: αSMA staining in TGF-β1 treated LL29 fibroblasts; assay type: cell-based; conditions: Homo sapiens, Fibroblast, 96 h, TGF-β1 20 ng/mL, 4 days, % αSMA positive cells
pEC50: −log10 of the molar value.
Threshold check on pEC50: at or above 6 gives Satisfied, strictly below gives Not satisfied.

FC1(F)CCN(Cc2cncc(-c3cnc4[nH]nc(-c5cc6ncccc6[nH]5)c4c3)c2)C1 Not satisfied
CN(C)c1cncc(-c2cnc3[nH]nc(-c4cc5ncccc5[nH]4)c3c2)c1 Not satisfied

Challenge: Reported pEC50 reaches at least 6 for Nc1cncc(-c2cnc3[nH]nc(-c4cc5c(-c6ccccn6)cccc5[nH]4)c3c2)c1 ?
Response given: Satisfied

---

system: Wnt activity (Sp5-Luc reporter gene, SW480 colon carcinoma cells); assay: Screening assay for Wnt activity: Sp5-Luc reporter gene assay in SW480 cells; format: cell-based, human; details: Homo sapiens, at 10 μM, given for EC50 of >10 μM, read-out: percent inhibition at 10 μM
ENDPOINT LABEL: inhibition at 10 µM (%)
Give just the numeric value; % need not be written.

Record excerpt, results attached:
c1cc(-c2ccncc2)c2cc(-c3n[nH]c4ncc(-c5ccncc5)cc34)[nH]c2c1 17.6
Fc1ccccc1-c1cccc2[nH]c(-c3n[nH]c4ncc(C5CCNCC5)cc34)cc12 47.2
Fc1cccc(-c2cccc3[nH]c(-c4n[nH]c5ncc(-c6cncc(OCc7ccccc7)c6)cc45)cc23)c1 18.2
c1cncc(-c2cccc3[nH]c(-c4n[nH]c5ncc(-c6cncc(CN7CCCCC7)c6)cc45)cc23)c1 48.5

Entry CN1CCN(c2cccc3[nH]c(-c4n[nH]c5ncc(-c6ccncc6)cc45)cc23)CC1 ; assay system Wnt activity (Sp5-Luc reporter gene, SW480 colon carcinoma cells); inhibition at 10 µM recorded at 7.7

Recorded inhibition at 10 µM for c1ccc(CNCc2cncc(-c3cnc4[nH]nc(-c5cc6ccccc6[nH]5)c4c3)c2)cc1 on Wnt activity (Sp5-Luc reporter gene, SW480 colon carcinoma cells) was 50.9

The molecule FC1(F)CCN(Cc2cncc(-c3cnc4[nH]nc(-c5cc6ncccc6[nH]5)c4c3)c2)C1 , when measured on Wnt activity (Sp5-Luc reporter gene, SW480 colon carcinoma cells), yielded inhibition at 10 µM of 42.4
